Experiment: n-octanol/water partition coefficient, log P of the compound by HPLC analysis
Format: physicochemical
Attribute: logP
Respond using a number only.

>>> print(df.to_string())
                                   compound  reported_measurement
0  CCCCCCCCCCCCCCCCc1c2[n+](cc3c(OC)c(OC)ccc13)CCc1cc3c(cc1-2)OCO3.[I-]                  3.24

Entry under test: "CCCCCCCCCCCCCCCCCCc1c2[n+](cc3c(OC)c(OC)ccc13)CCc1cc3c(cc1-2)OCO3.[I-]" . Its logP was 3.22

Measured logP, "CCCCCCCCCCCCc1c2[n+](cc3c(OC)c(OC)ccc13)CCc1cc3c(cc1-2)OCO3.[I-]" : 3.66

Entry COc1ccc2cc3[n+](cc2c1OC)CCc1cc2c(cc1-3)OCO2.[Cl-] [BERBERINE CHLORIDE] ; logP = -1.68

Record "CCCCCCCCCCCCCCCCOc1c(OC)ccc2cc3[n+](cc12)CCc1cc2c(cc1-3)OCO2.[Br-]" , field logP: 3.41

For record "CCCCCCCCCCCCCCCCCCOc1c(OC)ccc2cc3[n+](cc12)CCc1cc2c(cc1-3)OCO2.[Br-]" the listed logP is 3.01

The compound listed as "CCCCCCCCCCOc1c(OC)ccc2cc3[n+](cc12)CCc1cc2c(cc1-3)OCO2" has a reported logP of 2.26

Short answer for "CCCCCCCCCCCCOc1c(OC)ccc2cc3[n+](cc12)CCc1cc2c(cc1-3)OCO2.[Br-]" : logP was 3.43

Documented logP of "CCCCCCCCCCc1c2[n+](cc3c(OC)c(OC)ccc13)CCc1cc3c(cc1-2)OCO3" : 2.37

What the record says about "COc1ccc2c(Cc3ccccc3)c3[n+](cc2c1OC)CCc1cc2c(cc1-3)OCO2" : logP is -0.73

"COc1ccc2cc3[n+](cc2c1OCc1ccccc1)CCc1cc2c(cc1-3)OCO2.[Br-]" has a reported logP of -0.86

====

Experiment: Drug uptake in mitochondria of human U87 cells at 1 uM after 24 hrs by Mitotracker Green FM staining-based laser confocal microscopic analysis
Format: ADME
Details: u-87mg atcc
ASSAY_READOUT: Drug uptake

Record excerpt, results attached:
>>> df
                                   compound  assay_readout  reported_measurement
0  CCCCCCCCCCCCCCCCc1c2[n+](cc3c(OC)c(OC)ccc13)CCc1cc3c(cc1-2)OCO3.[I-]    Drug uptake                Active
1  CCCCCCCCCCCCc1c2[n+](cc3c(OC)c(OC)ccc13)CCc1cc3c(cc1-2)OCO3.[I-]    Drug uptake                Active
2  CCCCCCCCCCCCCCCCOc1c(OC)ccc2cc3[n+](cc12)CCc1cc2c(cc1-3)OCO2.[Br-]    Drug uptake                Active
3  COc1ccc2cc3[n+](cc2c1OC)CCc1cc2c(cc1-3)OCO2.[Cl-] [BERBERINE CHLORIDE]    Drug uptake                Active

Note: attention shifts to another entry.
// field: Drug uptake; key: "CCCCCCCCCCCCOc1c(OC)ccc2cc3[n+](cc12)CCc1cc2c(cc1-3)OCO2.[Br-]" ; value = Active
